- target-system: Activated CDC42 kinase 1 (Homo sapiens, UniProt Q07912)
- Sequence (Q07912 whole entry): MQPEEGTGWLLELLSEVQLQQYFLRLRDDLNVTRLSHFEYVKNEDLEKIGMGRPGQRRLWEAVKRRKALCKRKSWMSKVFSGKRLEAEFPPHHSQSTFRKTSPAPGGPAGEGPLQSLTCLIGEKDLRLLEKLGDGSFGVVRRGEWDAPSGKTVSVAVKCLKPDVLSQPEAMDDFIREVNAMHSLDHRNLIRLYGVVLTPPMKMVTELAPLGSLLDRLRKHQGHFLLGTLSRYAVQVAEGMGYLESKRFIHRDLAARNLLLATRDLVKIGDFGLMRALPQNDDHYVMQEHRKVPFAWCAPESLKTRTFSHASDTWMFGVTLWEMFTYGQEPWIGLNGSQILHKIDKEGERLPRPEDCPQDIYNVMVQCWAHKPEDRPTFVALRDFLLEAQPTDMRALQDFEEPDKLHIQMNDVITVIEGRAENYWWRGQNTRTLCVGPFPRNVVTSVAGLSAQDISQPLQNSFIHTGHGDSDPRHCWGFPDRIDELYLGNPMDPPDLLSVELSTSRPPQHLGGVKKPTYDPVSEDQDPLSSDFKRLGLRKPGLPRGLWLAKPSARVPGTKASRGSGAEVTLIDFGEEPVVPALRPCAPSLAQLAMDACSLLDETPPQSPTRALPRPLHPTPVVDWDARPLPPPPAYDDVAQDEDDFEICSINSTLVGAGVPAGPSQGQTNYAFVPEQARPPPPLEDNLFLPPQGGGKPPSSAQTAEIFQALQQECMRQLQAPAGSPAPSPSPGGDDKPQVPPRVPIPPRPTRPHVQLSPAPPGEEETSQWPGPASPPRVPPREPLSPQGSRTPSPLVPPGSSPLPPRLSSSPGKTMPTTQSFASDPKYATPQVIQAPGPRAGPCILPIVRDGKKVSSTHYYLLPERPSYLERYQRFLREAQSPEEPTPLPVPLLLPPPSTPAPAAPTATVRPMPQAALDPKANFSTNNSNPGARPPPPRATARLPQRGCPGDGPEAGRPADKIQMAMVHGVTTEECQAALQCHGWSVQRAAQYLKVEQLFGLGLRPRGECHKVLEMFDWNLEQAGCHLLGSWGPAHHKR
- protocol-text: Ack(TNK2LGF1) Takeda global kinase panel
Quick reference for IC50 among some molecules
measured-property: IC50 (µM)

molecule: CN1C(=O)[C@@H](N2CCc3cn(Cc4ccccc4)nc3C2=O)COc2ccccc21
unit-of-measure: µM
endpoint-value: 1

molecule: CN1C(=O)[C@@H](N2CCc3cn(CC4CCS(=O)(=O)CC4)nc3C2=O)COc2ccccc21 [TP-030n]
unit-of-measure: µM
endpoint-value: 1

----------
- target-system: Tyrosine-protein kinase Lyn (Homo sapiens)
- Sequence (P07948 whole entry): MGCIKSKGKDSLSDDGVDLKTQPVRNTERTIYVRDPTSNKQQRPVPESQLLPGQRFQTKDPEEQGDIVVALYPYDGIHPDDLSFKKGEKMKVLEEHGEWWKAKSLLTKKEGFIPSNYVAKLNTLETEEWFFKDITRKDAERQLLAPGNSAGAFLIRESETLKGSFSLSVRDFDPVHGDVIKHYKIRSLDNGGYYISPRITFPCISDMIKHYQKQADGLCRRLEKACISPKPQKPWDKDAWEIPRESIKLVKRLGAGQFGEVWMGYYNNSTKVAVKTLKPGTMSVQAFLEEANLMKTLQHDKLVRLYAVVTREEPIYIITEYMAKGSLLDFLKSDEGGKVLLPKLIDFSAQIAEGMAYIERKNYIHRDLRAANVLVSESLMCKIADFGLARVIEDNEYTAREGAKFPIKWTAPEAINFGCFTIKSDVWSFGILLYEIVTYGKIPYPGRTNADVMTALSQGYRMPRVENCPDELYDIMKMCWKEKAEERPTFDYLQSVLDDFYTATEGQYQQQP
measured-property: IC50 (nM)

molecule: CN1C(=O)[C@@H](N2CCc3cn(CC4CCS(=O)(=O)CC4)nc3C2=O)COc2ccccc21 [TP-030n]
measured-property: IC50
endpoint-value: 1000

----------
- target-system: Mixed lineage kinase domain-like protein (Homo sapiens, UniProt Q8NB16)
- Sequence (Q8NB16 whole entry): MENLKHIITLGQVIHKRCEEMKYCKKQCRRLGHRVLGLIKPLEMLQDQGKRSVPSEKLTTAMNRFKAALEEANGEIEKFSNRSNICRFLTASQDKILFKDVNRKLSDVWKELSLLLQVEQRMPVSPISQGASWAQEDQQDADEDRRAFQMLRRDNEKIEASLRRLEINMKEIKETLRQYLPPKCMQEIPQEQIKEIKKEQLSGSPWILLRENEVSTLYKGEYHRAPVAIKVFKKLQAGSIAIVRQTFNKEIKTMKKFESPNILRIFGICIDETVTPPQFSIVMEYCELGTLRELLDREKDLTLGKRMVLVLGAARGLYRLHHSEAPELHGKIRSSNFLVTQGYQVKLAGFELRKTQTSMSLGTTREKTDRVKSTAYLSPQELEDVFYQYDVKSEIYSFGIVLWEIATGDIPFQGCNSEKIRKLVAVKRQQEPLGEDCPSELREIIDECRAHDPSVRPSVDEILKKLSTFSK
measured-property: IC50

compound: CN1C(=O)[C@@H](N2CCc3cn(CC4CCS(=O)(=O)CC4)nc3C2=O)COc2ccccc21 [TP-030n]
target-system: Mixed lineage kinase domain-like protein (Homo sapiens, UniProt Q8NB16)
measured-property: IC50
endpoint-value: 1 µM
//
compound: CN1C(=O)[C@@H](N2CCc3cn(Cc4ccccc4)nc3C2=O)COc2ccccc21
target-system: Mixed lineage kinase domain-like protein (Homo sapiens, UniProt Q8NB16)
measured-property: IC50
endpoint-value: 1 µM

----------
- target-system: UniProt Q09013
- Sequence (Q09013 whole entry): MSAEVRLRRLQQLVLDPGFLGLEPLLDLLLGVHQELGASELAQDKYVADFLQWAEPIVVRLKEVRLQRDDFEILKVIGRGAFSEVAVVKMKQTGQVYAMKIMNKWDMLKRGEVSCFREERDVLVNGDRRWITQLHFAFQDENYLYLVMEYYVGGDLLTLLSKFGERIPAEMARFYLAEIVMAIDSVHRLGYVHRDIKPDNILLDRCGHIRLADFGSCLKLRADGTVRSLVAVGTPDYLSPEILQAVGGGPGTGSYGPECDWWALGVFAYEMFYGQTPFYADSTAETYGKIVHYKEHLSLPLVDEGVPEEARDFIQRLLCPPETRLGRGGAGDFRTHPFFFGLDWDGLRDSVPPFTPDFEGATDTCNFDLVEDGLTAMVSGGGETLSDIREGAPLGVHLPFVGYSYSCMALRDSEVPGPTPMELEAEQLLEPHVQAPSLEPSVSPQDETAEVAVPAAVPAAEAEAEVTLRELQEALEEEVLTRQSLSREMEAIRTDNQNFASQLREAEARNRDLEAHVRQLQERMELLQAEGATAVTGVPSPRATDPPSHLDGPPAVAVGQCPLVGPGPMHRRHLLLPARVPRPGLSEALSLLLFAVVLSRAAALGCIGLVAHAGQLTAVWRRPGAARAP

compound: CN1C(=O)[C@@H](N2CCc3cn(CC4CCS(=O)(=O)CC4)nc3C2=O)COc2ccccc21 [TP-030n]
IC50, nM: 1000

compound: CN1C(=O)[C@@H](N2CCc3cn(Cc4ccccc4)nc3C2=O)COc2ccccc21
IC50, nM: 1000

----------
- target-system: Beta-adrenergic receptor kinase 1 (Homo sapiens)
- Sequence (P25098 whole entry): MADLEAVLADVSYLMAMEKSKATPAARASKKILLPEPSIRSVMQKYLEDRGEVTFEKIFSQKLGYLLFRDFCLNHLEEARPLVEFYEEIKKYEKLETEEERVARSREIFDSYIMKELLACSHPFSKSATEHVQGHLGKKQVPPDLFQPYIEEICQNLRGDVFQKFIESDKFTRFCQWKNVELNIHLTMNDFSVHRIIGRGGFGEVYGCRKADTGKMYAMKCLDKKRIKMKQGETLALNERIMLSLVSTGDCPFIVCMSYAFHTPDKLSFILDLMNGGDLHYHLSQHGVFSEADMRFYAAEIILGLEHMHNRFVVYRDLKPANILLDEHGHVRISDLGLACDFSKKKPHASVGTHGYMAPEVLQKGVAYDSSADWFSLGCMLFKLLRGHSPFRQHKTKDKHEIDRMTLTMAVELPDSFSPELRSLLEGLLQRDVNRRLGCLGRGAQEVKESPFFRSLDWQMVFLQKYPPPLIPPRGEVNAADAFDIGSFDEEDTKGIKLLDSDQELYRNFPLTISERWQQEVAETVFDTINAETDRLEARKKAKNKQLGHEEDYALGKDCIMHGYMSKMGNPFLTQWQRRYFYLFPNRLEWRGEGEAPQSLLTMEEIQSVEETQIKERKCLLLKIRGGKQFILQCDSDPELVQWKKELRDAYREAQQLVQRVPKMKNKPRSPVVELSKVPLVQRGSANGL
pIC50: −log10 of the molar value.
Quick reference for pIC50 among some compounds

compound: CN1C(=O)[C@@H](N2CCc3cn(CC4CCS(=O)(=O)CC4)nc3C2=O)COc2ccccc21 [TP-030n]
target-system: Beta-adrenergic receptor kinase 1 (Homo sapiens)
pIC50: 6.00
--
compound: CN1C(=O)[C@@H](N2CCc3cn(Cc4ccccc4)nc3C2=O)COc2ccccc21
target-system: Beta-adrenergic receptor kinase 1 (Homo sapiens)
pIC50: 6.00
